Test system: PC3 (androgen independent) prostate tumor cells
Experiment: Growth inhibition of prostate tumor cells, modified MTT assay
Format: cell-based
Conditions: AS added every 24 h for 72 h, read-out: Experiment 2 (EC50)
recorded_metric: EC50 (µM)

{"columns": ["molecule", "recorded_metric", "scale_unit", "reported_value"],
 "data": [
  ["[Na+].[Na+].[O-][N+]([O-])=NO [Angeli's salt]", "EC50", "µM", 700]
]}

* * *

Tested on: LNCaP (androgen dependent) prostate tumor cells
Experiment: Growth inhibition of prostate tumor cells, modified MTT assay
Type: cell-based
Conditions: AS added every 24 h for 72 h, read-out: Experiment 3 (EC50)

{"columns": ["molecule", "EC50"],
 "data": [
  ["[Na+].[Na+].[O-][N+]([O-])=NO [Angeli's salt]", "1200 µM"]
]}

* * *

Tested on: PC3 (androgen independent) prostate tumor cells
Assay: Growth inhibition of prostate tumor cells, modified MTT assay
Assay type: cell-based
Details: AS added every 24 h for 72 h, read-out: Experiment 3 (EC50)
recorded_metric: EC50

{"columns": ["compound", "recorded_metric", "reported_value"],
 "data": [
  ["[Na+].[Na+].[O-][N+]([O-])=NO [Angeli's salt]", "EC50", "1400 µM"]
]}

* * *

Test system: LNCaP (androgen dependent) prostate tumor cells
Experiment: Growth inhibition of prostate tumor cells, modified MTT assay
Format: cell-based
Details: mean of experiments 2 and 3 only (experiment 1 left out), read-out: Mean EC50
Method: PC3 cells (filled circles) are hormone independent cells, whereas, LNCaP (opend circles) are hormone dependent cells. Y-axis indicates percentage of cell growth as measured by a modified MTT assay. X-axis in the concentration (mM) of Angeli's salt added every 24 hrs for a total of 72 hours. A characteristic feature of PC3 (androgen independent) and LNCaP (androgen dependent) prostate tumor cells is the overexpression of an intrinsic plasma membrane Na^+/K^+ pump regulatory protein, MAT-8. […]
pEC50: −log10 of the molar value.

{"columns": ["compound", "pEC50"],
 "data": [
  ["[Na+].[Na+].[O-][N+]([O-])=NO [Angeli's salt]", 2.98]
]}
